- target-or-test-system: Serine/threonine-protein kinase pim-1 (Homo sapiens, UniProt P11309)
- test: The phosphorylation of biotinylated-BAD (S112) peptide by full length recombinant Pim-1, Pim-2, or Pim-3 protein was detected with streptavidin:Allophycocyanin (APC) conjugate and a europium (Eu) labeled antibody directed against phosphorylated-BAD (S112). […] The fluorescence is directly proportional to the amount of phosphorylated BAD peptide present in the reaction. […] The Reaction Buffer consisted of 45 mM Hepes, pH 7.0, 15 mM NaCl, and 1 mM MgCl. The quench/detection buffer consisted of 50 mM Tris, 100 mM NaCl, 0.05% BSA, 0.1% Tween and 3 mM EDTA. Biotinylated BAD peptide (Biopeptide), 10 mM ATP (Sigma), Labeled p-BAD (S112) mAb (Cell Signalling and Perkin Elmer) [with 0.05% BSA and 2 mM DTT added] streptavidin:Allophycocyanin [Perkin Elmer]. […] Initial incubations were carried out at RT (22° C.) for 30 min for both Pim-1 and for Pim-2. Pim enzyme is added to compound in buffer, and plates are incubated of 30 min. Biotinylated BAD and ATP are added and plates are incubated for 1 h. A mixture of labeled p-BAD (S112) mAb and quench/detection buffer are added and incubated for 2 h. Fluorescence was measured by an HTRF® Envision microplate reader.
property: log10(IC50) (log10 of the value in nM)
Annotation: log10 of IC50, nM basis.

Quickly give me recorded log10(IC50) for CC1(C)CCCN1c1cnc2cccc(-c3cc4c([nH]3)CCNC4=O)c2n1
-0.52

Specify reported log10(IC50) for the compound shown: Cc1nc2cccc(-c3cc4c([nH]3)CCNC4=O)c2nc1-c1cnccc1Cl
1.71

Kindly indicate its recorded log10(IC50). Item: Cc1nc2cccc(-c3cc4c([nH]3)CCN/C4=N/O)c2nc1NC(C)(C)C
0.95

Supply recorded log10(IC50) for Cc1nc2cccc(-c3cc4c([nH]3)CCNC4=O)c2nc1NC(C)(C)C(N)=O here.
0.79

Give the value of log10(IC50) reported for the following: Cc1nc2cccc(-c3cc4c([nH]3)CCNC4=O)c2nc1-c1c(F)cccc1Cl
0.78

Annotate the compound Cc1nc2cccc(-c3cc4c([nH]3)CCNC4=O)c2nc1N[C@H]1C[C@@H](NCC(F)F)C1 with its measured log10(IC50).
0.30

Consider the compound Cc1nc2cccc(-c3cc4c([nH]3)CCNC4=O)c2nc1N[C@H]1C[C@@H](N2CCOCC2)C1 and give its recorded log10(IC50).
0.78

Return reported log10(IC50). Input compound: Cc1nc2cccc(-c3cc4c([nH]3)CCNC4=O)c2nc1-c1ccc(N)cc1Cl
1.01

Given the compound Nc1nc2cccc(-c3cc4c([nH]3)CCNC4=O)c2nc1Oc1ccccc1 , write its reported log10(IC50).
0.30

----------
- target-or-test-system: Serine/threonine-protein kinase pim-1 (Homo sapiens)
- test: The phosphorylation of biotinylated-BAD (S112) peptide by full length recombinant Pim-1, Pim-2, or Pim-3 protein was detected with streptavidin:Allophycocyanin (APC) conjugate and a europium (Eu) labeled antibody directed against phosphorylated-BAD (S112). […] The fluorescence is directly proportional to the amount of phosphorylated BAD peptide present in the reaction. […] The Reaction Buffer consisted of 45 mM Hepes, pH 7.0, 15 mM NaCl, and 1 mM MgCl. The quench/detection buffer consisted of 50 mM Tris, 100 mM NaCl, 0.05% BSA, 0.1% Tween and 3 mM EDTA. Biotinylated BAD peptide (Biopeptide), 10 mM ATP (Sigma), Labeled p-BAD (S112) mAb (Cell Signalling and Perkin Elmer) [with 0.05% BSA and 2 mM DTT added] streptavidin:Allophycocyanin [Perkin Elmer]. […] Initial incubations were carried out at RT (22° C.) for 30 min for both Pim-1 and for Pim-2. Pim enzyme is added to compound in buffer, and plates are incubated of 30 min. Biotinylated BAD and ATP are added and plates are incubated for 1 h. A mixture of labeled p-BAD (S112) mAb and quench/detection buffer are added and incubated for 2 h. Fluorescence was measured by an HTRF® Envision microplate reader.
// boundary case: IC50 equal to 10 nM maps to rule not met; strictly smaller maps to rule met

Is IC50 of Cc1nc2cccc(-c3cc4c(n3C)C(CO)NC4=O)c2nc1NC(C)(C)C (racemic) strictly below 10 nM?
rule not met

Report whether reported IC50 is lower than 10 nM (strictly) for CC(C)(C)Nc1ccc2cccc(-c3cc4c([nH]3)CCNC4=O)c2n1
rule met

Strictly below 10 nM in IC50? Cc1nc2cccc(-c3cc4c([nH]3)C(CO)NC4=O)c2nc1NC(C)(C)C (racemic)
rule met

Criterion: IC50 strictly below 10 nM. Is it met by CC1(C)CCN1c1cnc2cccc(-c3cc4c([nH]3)CCNC4=O)c2n1 ?
rule met

Identify whether the compound Cc1nc2cccc(-c3cc4c([nH]3)CCNC4=O)c2nc1NC(C)(C)CCS(C)(=O)=O records IC50 below 10 nM.
rule not met

Dear reviewer, please state whether Cc1nc2cccc(-c3cc4c([nH]3)CCNC4=O)c2nc1N[C@H]1C[C@@H](N(C)C)C1 has IC50 strictly beneath 10 nM.
rule met

I'd appreciate it if you could check whether Cc1nc2cccc(-c3cc4c([nH]3)CCNC4=O)c2nc1-c1cccnc1Cl has IC50 smaller than 10 nM.
rule not met

IC50 under 10 nM? Item: Cc1nc2cccc(-c3cc4c([nH]3)CCNC4=O)c2nc1NC(C)C(C)C (racemic)
rule met
